From: PubChem BioAssay

Consider the following compounds; for each one, report its composite z-score.
- Test system: Sam68 (KHDRBS1)
- ASSAY_NAME: Sam68 small-molecule binders, primary screen, biochemical, small-molecule microarray, 635 nm fluorescence (AID 1125);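 further: score merges 667 nm channel intensity with signal to noise over triplicate slides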
- EXPERIMENTAL_PARAMETERS: small-molecule microarray binding, higher = more signal
Give bare numbers.

C=CCOC(=O)[C@H]1[C@@H]2C(=O)O[C@@H](c3ccccc3)[C@@H](c3ccccc3)N2[C@@H](c2ccc(OCCOC(=O)[C@H]3C[C@H]4C(=O)N5CCC[C@H]5C(=O)N4[C@H]3c3ccc(O)cc3)cc2)[C@]12C(=O)Nc1ccc(I)cc12: 1.31
CCCCN1CC=CC23O[C@@H]4/C=C\CCC(C)OC(=O)C4[C@H]2C(=O)N(CCCCCO)[C@@H]3C1=O (stereo partly drawn): -0.287
C#CCN(Cc1ccccc1Br)C(/C=C/c1ccccc1)CO (stereo not drawn): -0.271
CC(C)OC(=O)C=C1C[C@@H](c2ccccc2C(F)(F)F)O[C@@H](c2ccccc2C(F)(F)F)O1: 0.609

For every item below, please supply its composite z-score.
1. O=C1NC(=O)C2C1C=CC(C(O)c1cccc3ccccc13)N2Nc1ccccn1 (stereo not drawn)
2. O=C(c1ccccc1)N1Cc2ccccc2[C@@H]2OC(c3ccc(OCCCO)cc3)=N[C@]2(Cc2ccccc2)C1=O
3. CC(C)C[C@@H]1NC(=O)[C@H]2C[C@@H](C(=O)NCCCCCCN(C)C)[C@@H](c3ccc(O)cc3)N2C1=O
4. [N-]=[N+]=Nc1ccccc1C[C@]1(C(N)=O)N=C(c2ccc(OCCCO)cc2)O[C@H]1c1ccccc1

output:
[0.0488, 1.31, 1.32, 0.974]
